test: qHTS to identify inhibitors of the type 1 interferon - major histocompatibility complex class I in skeletal muscle: Secondary screen by immunofluorescence; conditions: C25cl48 myoblasts, IFN-b induced HLA-ABC immunofluorescence, 24 h, Viability; series mostly up to 49.8 µM; note: nearly all actives have a fitted effect of over 70% in size
Records with an inconclusive call do not appear. Calls of active or inactive are those of the source. Calls come from the whole dose curve; as a rule, active = well fitted inhibition curve with a large enough effect; inconclusive = small, poorly fitted or top-dose-only effect; inactive = no such curve, though single readings can be large or run the other way.
Possible outcomes: True for active, False for inactive

- CCc1cc(C(N)=O)ccc1-n1nc(C(C)C)c2c(-n3cnc(-c4cnn(C)c4)c3)ccnc21: False
- C[C@H](NC(=O)/C(C#N)=C/c1cccc(Br)n1)c1ccccc1: True
- Cc1cc(O)c(-c2ccc([C@@H](C)CN(C)C)cc2)c2c1[nH]c(=O)c1sccc12: False
- CCOc1cc2ncc(C#N)c(Nc3ccc(F)c(Cl)c3)c2cc1NC(=O)/C=C/CN(C)C: True
- O=[N+]([O-])c1ccc2c(c1)S(=O)(=O)C=C2: True
- CCOC(=O)C1=C(C)NC2=C(C(=O)CC(C)(C)C2)C1c1ccc(-c2ccccc2)cc1 (stereo unspecified): False
